Listed here: items and their measured IC50.
Biological target: EGFR L858R/T790M/C797S (Homo sapiens, UniProt P00533, C797S/L858R/T790M)
Sequence (P00533 25-1210 T790M/C797S/L858R): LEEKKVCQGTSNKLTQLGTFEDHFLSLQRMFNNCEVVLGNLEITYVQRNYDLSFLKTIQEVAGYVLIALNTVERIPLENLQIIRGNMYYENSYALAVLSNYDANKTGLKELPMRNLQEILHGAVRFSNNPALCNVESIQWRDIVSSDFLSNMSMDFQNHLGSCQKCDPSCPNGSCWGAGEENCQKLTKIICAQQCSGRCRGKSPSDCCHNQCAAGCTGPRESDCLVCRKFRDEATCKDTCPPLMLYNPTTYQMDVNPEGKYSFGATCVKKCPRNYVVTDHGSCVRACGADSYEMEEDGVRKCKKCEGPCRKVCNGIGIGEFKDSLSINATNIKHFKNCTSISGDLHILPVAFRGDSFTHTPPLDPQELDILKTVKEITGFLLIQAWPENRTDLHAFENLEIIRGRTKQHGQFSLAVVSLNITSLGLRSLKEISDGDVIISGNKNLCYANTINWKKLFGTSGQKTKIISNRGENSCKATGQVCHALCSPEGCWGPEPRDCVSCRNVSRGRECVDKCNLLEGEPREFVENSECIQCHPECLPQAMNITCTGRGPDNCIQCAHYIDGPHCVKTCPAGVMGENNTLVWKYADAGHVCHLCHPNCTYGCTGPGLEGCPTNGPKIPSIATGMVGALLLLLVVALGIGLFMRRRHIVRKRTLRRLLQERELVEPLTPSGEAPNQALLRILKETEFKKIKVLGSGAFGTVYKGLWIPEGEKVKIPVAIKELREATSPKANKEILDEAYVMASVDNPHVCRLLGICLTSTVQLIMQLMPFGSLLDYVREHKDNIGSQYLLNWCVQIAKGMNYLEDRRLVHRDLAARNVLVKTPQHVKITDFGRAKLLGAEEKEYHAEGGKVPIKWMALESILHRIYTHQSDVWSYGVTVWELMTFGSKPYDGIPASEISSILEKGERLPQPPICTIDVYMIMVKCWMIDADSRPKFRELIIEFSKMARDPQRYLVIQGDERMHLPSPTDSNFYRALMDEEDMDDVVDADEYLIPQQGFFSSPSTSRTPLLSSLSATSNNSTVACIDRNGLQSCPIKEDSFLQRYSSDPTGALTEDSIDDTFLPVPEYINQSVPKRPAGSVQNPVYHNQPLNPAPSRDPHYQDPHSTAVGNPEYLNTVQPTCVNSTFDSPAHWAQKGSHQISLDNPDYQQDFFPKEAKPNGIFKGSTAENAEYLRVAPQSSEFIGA
Assay: Biochemical EGFR kinase assay (Lance Ultra TR-FRET), L858R/T790M/C797S
Conditions: IC50 L858R/T790M/C797S (nM) 100 μM ATP, 100 μM ATP
Answer format: number, then unit.

Answered examples (3):
O=C(c1cnc(Nc2ccnc(-c3cnn(S(=O)(=O)C4CC4)c3)n2)cc1N[C@H]1CC[C@@H](O)C1)C1CC1 | 1 nM
O=C(c1cnc(Nc2ccnc(-c3cnn(S(=O)(=O)C4CC4)c3)n2)cc1NC1CC[C@@H](O)[C@@H](O)C1)C1CC1 (some centres unmarked) | 0.9 nM
CC(C)(O)[C@H]1CC[C@@H](Nc2cc(Nc3ccnc(-c4cnn(S(=O)(=O)C5CC5)c4)n3)ncc2C(=O)C(F)F)CC1 | 6.9 nM

[in] For `O=C(c1cnc(Nc2ccnc(-c3cnn(S(=O)(=O)C4CC4)c3)n2)cc1N[C@H]1CCC[C@H](O)C1)C1CC1` , what is its reported IC50?
[out] 1.1 nM

[in] Try the compound CN(C)C1CCN(CCNC2CCC(Nc3cc(Nc4ccnc(-c5cnn(S(=O)(=O)C6CC6)c5)n4)ncc3C(=O)C3CC3)CC2)CC1 (centres unmarked)
[out] 1 nM

[in] // query: `CN(C)CCN1CCC(Nc2cc(Nc3ccnc(-c4cnn(S(=O)(=O)C5CC5)c4)n3)ncc2C(=O)C2CC2)CC1`
[out] 2 nM

[in] Also `O=C(c1cnc(Nc2ccnc(-c3cnn(S(=O)(=O)C4CC4)c3)n2)cc1N[C@H]1CC[C@H](O)C1)C1CC1` , if possible.
[out] 4.4 nM

[in] Proceed to O=C(c1cnc(Nc2ccnc(-c3cnn(S(=O)(=O)C4CC4)c3)n2)cc1NC1CCCOC1)C1CC1 (centres unmarked)
[out] 5.3 nM

---

In this section we review reported log10 of IC50 values for a set of compounds.
Target: EGFR L858R/C797S (Homo sapiens, UniProt P00533, C797S/L858R)
Sequence (P00533 25-1210 C797S/L858R): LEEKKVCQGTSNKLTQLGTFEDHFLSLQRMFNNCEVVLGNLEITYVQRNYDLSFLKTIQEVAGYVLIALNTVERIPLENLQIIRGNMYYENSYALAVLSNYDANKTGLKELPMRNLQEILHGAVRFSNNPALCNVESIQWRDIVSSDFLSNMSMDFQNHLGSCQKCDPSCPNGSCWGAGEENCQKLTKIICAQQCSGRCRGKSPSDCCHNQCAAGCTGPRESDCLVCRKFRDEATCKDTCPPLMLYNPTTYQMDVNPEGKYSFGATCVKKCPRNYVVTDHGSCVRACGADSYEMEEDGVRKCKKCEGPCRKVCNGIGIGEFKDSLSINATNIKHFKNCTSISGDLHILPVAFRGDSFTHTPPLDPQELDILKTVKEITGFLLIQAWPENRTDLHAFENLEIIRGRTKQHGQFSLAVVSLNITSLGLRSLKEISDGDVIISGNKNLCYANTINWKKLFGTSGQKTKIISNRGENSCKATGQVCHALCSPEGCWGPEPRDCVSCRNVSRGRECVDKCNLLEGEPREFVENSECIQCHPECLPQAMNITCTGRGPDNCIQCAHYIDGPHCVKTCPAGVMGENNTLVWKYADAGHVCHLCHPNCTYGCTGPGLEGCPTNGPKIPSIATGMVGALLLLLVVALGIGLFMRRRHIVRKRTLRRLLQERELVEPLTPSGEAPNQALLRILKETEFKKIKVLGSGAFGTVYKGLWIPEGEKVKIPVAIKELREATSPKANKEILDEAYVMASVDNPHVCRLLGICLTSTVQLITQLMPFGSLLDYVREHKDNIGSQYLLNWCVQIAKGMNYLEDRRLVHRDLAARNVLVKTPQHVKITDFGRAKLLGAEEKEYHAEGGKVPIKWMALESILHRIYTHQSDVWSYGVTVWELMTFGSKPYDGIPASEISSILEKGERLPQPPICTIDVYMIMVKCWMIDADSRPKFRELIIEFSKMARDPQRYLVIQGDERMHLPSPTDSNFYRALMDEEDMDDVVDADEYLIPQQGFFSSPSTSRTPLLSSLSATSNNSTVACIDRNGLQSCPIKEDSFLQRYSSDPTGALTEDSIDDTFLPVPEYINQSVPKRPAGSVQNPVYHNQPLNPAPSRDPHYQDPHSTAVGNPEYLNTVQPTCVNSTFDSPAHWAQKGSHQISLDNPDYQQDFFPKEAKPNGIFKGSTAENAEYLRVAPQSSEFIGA
Assay: Biochemical EGFR kinase assay (Lance Ultra TR-FRET), L858R/C797S
Settings: IC50 L858R/C797S (nM) 100 μM ATP, 100 μM ATP
// stored as log10 of IC50 expressed in nM

O=C(c1cnc(Nc2ccnc(-c3cnn(S(=O)(=O)C4CC4)c3)n2)cc1NCCC1(O)CC1)C1CC1 [Example 29] | 2.08

[in] // returns reported log10 of IC50 for input O=C(c1cnc(Nc2ccnc(-c3cnn(S(=O)(=O)C4CC4)c3)n2)cc1N[C@H]1CC[C@H](O)C1)C1CC1 [Example 24]
[out] 1.90

[in] O=C(c1cnc(Nc2ccnc(-c3cnn(S(=O)(=O)C4CC4)c3)n2)cc1NC1CC[C@@H](O)[C@@H](O)C1)C1CC1 (stereo partly drawn) [Example 36] , same question.
[out] 1.19

[in] Would you mind doing CC(C)(CO)CNc1cc(Nc2ccnc(-c3cnn(S(=O)(=O)C4CC4)c3)n2)ncc1C(=O)C1CC1 [Example 28] as well?
[out] 2.37

[in] What do we get for C[C@]1(O)CC[C@@H](Nc2cc(Nc3ccnc(-c4cnn(S(=O)(=O)C5CC5)c4)n3)ncc2C(=O)CC2CCOCC2)CC1 [Example 40] ?
[out] 2.28

[in] Now this one: CC(C)(O)[C@H]1CC[C@@H](Nc2cc(Nc3ccnc(-c4cnn(S(=O)(=O)C5CC5)c4)n3)ncc2C(=O)C(F)F)CC1 [Example 50]
[out] 2.20

[in] Now the compound C[C@]1(O)CC[C@@H](Nc2cc(Nc3ccnc(-c4cnn(S(=O)(=O)C5CC5)c4)n3)ncc2C(=O)C(F)F)CC1 [Example 48]
[out] 2.04

[in] What about O=C(c1cnc(Nc2ccnc(-c3cnn(S(=O)(=O)C4CC4)c3)n2)cc1N[C@H]1CC[C@@H](NCCF)CC1)C(F)F [Example 51] ?
[out] 2.61

[in] Okay, and CN(C)C1CCN(CCNC2CCC(Nc3cc(Nc4ccnc(-c5cnn(S(=O)(=O)C6CC6)c5)n4)ncc3C(=O)C3CC3)CC2)CC1 (stereo not drawn) [Example 57] ?
[out] 1.03

[in] Also, O=C(c1cnc(Nc2ccnc(-c3cnn(S(=O)(=O)C4CC4)c3)n2)cc1N[C@@H]1CC[C@@H](O)C1)C1CC1 [Example 26] please.
[out] 2.07

[in] Proceed to O=C(c1cnc(Nc2ccnc(-c3cnn(S(=O)(=O)C4CC4)c3)n2)cc1NC1CCOCC1)C1CC1 [Example 35]
[out] 2.73

[in] Query O=C(c1cnc(Nc2ccnc(-c3cnn(S(=O)(=O)C4CC4)c3)n2)cc1N[C@H]1CC[C@@H](CO)CC1)C(F)F [Example 49] next
[out] 1.32

---

Reported IC50 is given for each of the following compounds.
Target: EGFR del19/T790M/C797S (Homo sapiens, UniProt P00533, C797S/DEL746-750/T790M)
Sequence (P00533 with tags, fused parts or gaps DEL746-750/T790M/C797S): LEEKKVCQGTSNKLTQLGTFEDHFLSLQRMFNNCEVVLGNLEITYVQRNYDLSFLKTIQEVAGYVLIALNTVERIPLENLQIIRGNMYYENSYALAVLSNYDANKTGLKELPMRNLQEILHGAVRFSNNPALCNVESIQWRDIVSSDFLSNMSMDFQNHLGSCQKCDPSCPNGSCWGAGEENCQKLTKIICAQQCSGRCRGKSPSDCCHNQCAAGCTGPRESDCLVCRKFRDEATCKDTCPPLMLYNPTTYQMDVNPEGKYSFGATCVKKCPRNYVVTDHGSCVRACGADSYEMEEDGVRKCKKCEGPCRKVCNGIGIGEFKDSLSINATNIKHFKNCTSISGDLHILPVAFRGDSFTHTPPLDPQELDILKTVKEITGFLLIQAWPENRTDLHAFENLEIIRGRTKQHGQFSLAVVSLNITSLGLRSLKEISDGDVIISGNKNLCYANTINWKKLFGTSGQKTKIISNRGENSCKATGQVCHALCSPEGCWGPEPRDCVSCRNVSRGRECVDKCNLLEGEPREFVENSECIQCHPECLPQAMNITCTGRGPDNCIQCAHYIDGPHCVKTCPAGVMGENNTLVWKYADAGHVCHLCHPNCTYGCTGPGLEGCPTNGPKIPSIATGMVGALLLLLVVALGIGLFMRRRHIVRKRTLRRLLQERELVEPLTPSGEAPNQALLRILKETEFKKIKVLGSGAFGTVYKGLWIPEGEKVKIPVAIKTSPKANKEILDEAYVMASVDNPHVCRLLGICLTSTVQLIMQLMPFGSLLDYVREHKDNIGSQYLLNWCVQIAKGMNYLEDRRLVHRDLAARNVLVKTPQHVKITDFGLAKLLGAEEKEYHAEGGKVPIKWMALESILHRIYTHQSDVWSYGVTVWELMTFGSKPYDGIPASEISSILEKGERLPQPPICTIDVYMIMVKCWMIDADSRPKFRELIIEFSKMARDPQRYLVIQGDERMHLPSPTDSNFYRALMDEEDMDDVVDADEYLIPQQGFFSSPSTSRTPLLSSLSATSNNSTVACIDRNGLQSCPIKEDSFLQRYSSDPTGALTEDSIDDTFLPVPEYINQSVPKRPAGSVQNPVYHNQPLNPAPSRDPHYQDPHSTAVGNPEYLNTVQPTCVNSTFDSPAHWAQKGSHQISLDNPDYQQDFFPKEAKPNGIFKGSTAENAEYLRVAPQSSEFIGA
Assay: Biochemical EGFR kinase assay (Lance Ultra TR-FRET), del19/T790M/C797S
Settings: Km ATP; read-out: IC50 del19/T790M/C797S (nM) Km ATP
Form entry: value (nM) — number only.

Worked cases, answers included:
CC(=O)NC[C@H]1CC[C@H](CNc2cc(Nc3ccnc(-c4cnn(S(=O)(=O)C5CC5)c4)n3)ncc2C(=O)C2CC2)CC1 [Example 68] | 1
CC(C)Nc1cc(Nc2ccnc(-c3cnn(S(=O)(=O)C4CC4)c3)n2)ncc1C(=O)NCCF [Example 74] | 6.3

Attention now turns to another entry.
[in] Endpoint output: IC50 of CC(C)NC[C@H]1CC[C@H](CNc2cc(Nc3ccnc(-c4cnn(S(=O)(=O)C5CC5)c4)n3)ncc2C(=O)C2CC2)CC1 [Example 69] . Value?
[out] 0.1

---

Target: UniProt:P00533
Experiment: Biochemical EGFR kinase assay (Lance Ultra TR-FRET), wildtype
Conditions: Km ATP; read-out: IC50 WT (nM) Km ATP
# label = fulfilled if IC50 < 200 nM else not fulfilled

[in] A record lists `CC(C)Nc1cc(Nc2ccnc(-c3cnn(S(=O)(=O)C4CC4)c3)n2)ncc1F` . Is its IC50 below 200 nM?
[out] fulfilled

[in] Again, but for `CC(C)(O)[C@H]1CC[C@@H](Nc2cc(Nc3ccnc(-c4cnn(S(=O)(=O)C5CC5)c4)n3)ncc2C(=O)C(F)F)CC1`
[out] not fulfilled

[in] What do we get for `O=C(c1cnc(Nc2ccnc(-c3cnn(S(=O)(=O)C4CC4)c3)n2)cc1NC[C@H]1CC[C@H](Cn2ccnc2)CC1)C1CC1` ?
[out] fulfilled

---

Target: EGFR del19/C797S (Homo sapiens, UniProt P00533, C797S/DEL746-750)
Sequence (P00533 with tags, fused parts or gaps DEL746-750/C797S): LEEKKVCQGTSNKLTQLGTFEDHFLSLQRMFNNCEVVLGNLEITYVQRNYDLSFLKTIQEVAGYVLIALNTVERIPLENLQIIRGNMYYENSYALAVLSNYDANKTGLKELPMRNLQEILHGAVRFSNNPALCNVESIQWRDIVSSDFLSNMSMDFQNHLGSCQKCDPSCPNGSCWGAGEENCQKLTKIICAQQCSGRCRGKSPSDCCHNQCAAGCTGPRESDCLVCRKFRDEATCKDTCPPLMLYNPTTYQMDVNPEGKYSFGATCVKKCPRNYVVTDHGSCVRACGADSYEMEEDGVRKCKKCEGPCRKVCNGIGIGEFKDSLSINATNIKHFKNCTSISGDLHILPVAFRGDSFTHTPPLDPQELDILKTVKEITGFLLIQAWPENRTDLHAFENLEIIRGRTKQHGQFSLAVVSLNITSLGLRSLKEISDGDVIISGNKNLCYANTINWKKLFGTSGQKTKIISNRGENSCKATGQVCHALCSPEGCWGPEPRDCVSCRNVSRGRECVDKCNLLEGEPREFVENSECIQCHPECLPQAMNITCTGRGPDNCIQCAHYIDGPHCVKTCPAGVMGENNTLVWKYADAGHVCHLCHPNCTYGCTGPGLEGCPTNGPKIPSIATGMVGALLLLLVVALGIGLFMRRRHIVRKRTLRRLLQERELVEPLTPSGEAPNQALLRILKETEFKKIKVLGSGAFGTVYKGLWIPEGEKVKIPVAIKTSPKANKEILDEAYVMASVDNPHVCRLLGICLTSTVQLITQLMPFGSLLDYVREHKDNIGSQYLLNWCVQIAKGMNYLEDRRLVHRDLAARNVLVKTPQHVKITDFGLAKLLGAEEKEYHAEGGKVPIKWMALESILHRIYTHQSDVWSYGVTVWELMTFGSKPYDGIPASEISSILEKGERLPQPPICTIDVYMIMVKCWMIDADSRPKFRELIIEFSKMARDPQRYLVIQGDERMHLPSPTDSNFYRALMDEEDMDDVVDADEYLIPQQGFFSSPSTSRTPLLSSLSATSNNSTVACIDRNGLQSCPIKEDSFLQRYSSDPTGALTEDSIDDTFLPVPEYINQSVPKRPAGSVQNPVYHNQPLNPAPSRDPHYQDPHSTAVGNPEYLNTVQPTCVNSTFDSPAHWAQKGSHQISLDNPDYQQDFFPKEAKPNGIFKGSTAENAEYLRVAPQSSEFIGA
Experiment: Biochemical EGFR kinase assay (Lance Ultra TR-FRET), del19/C797S
Conditions: IC50 del19/C797S (nM) 100 μM ATP, 100 μM ATP
Property: log10 IC50 (log10 of the value in nM)
Response schema: value (number) is log10 of IC50 in units of nM.

[in] I have this molecule here, O=C(c1cnc(Nc2ccnc(-c3cnn(S(=O)(=O)C4CC4)c3)n2)cc1NC1CCCOC1)C1CC1 (stereo not shown) , and I need its recorded log10 IC50.
[out] 2.09

---

Below, each entry is listed with its recorded IC50.
Target: EGFR L858R/C797S (Homo sapiens, UniProt P00533, C797S/L858R)
Assay: Biochemical EGFR kinase assay (Lance Ultra TR-FRET), L858R/C797S
Conditions: IC50 L858R/C797S (nM) 100 μM ATP, 100 μM ATP
Write down the numeric answer in nM and omit the unit.

O=C(c1cnc(Nc2ccnc(-c3cnn(S(=O)(=O)C4CC4)c3)n2)cc1NC1CCC(NCCN2CC(F)C2)CC1)C1CC1 (stereo not drawn) [Example 55] | 85
O=C(c1cnc(Nc2ccnc(-c3cnn(S(=O)(=O)C4CC4)c3)n2)cc1NC1CCC(NCCO)CC1)C1CC1 (stereo not drawn) [Example 52] | 15.2
CN[C@H]1CC[C@H](CNc2cc(Nc3ccnc(-c4cnn(S(=O)(=O)C5CC5)c4)n3)ncc2C(=O)C2CC2)CC1 [Example 88] | 30.7

[in] Find the recorded IC50 belonging to O=C(c1cnc(Nc2ccnc(-c3cnn(S(=O)(=O)C4CC4)c3)n2)cc1NC1CCCN(CCF)C1)C1CC1 (stereo not drawn) [Example 39] and report it.
[out] 451

[in] Would you mind doing O=C(c1cnc(Nc2ccnc(-c3cnn(S(=O)(=O)C4CC4)c3)n2)cc1N[C@H]1CC[C@@H](O)CC1)C1CC1 [Example 23] as well?
[out] 6.4

---

Molecular target: EGFR wildtype (WT) (Homo sapiens)
Assay: Biochemical EGFR kinase assay (Lance Ultra TR-FRET), wildtype
Conditions: Km ATP; read-out: IC50 WT (nM) Km ATP
IC50 vs 400 nM: less than gives yes (1); not less than gives no (0).

Solved entries (count: 2):
O=C(c1cnc(Nc2ccnc(-c3cnn(S(=O)(=O)C4CC4)c3)n2)cc1N[C@H]1CC[C@@H](CO)CC1)C(F)F | yes (1)
C[C@@H](O)CCNc1cc(Nc2ccnc(-c3cnn(S(=O)(=O)C4CC4)c3)n2)ncc1C(=O)C1CC1 | yes (1)

[in] Take the compound `O=C(c1cnc(Nc2ccnc(-c3cnn(S(=O)(=O)C4CC4)c3)n2)cc1NCCCO)C1CC1` and say whether its IC50 is less than 400 nM.
[out] no (0)
